molecular target: DNA topoisomerase 2-alpha (Homo sapiens) (UniProt P11388); assay: Inhibition of human recombinant full-length topoisomerase-2-alpha assessed as decatenation of kDNA at 20 uM after 20 mins by ethidium bromide gel electrophoreses-based densitometric analysis
Sequence (P11388 whole entry): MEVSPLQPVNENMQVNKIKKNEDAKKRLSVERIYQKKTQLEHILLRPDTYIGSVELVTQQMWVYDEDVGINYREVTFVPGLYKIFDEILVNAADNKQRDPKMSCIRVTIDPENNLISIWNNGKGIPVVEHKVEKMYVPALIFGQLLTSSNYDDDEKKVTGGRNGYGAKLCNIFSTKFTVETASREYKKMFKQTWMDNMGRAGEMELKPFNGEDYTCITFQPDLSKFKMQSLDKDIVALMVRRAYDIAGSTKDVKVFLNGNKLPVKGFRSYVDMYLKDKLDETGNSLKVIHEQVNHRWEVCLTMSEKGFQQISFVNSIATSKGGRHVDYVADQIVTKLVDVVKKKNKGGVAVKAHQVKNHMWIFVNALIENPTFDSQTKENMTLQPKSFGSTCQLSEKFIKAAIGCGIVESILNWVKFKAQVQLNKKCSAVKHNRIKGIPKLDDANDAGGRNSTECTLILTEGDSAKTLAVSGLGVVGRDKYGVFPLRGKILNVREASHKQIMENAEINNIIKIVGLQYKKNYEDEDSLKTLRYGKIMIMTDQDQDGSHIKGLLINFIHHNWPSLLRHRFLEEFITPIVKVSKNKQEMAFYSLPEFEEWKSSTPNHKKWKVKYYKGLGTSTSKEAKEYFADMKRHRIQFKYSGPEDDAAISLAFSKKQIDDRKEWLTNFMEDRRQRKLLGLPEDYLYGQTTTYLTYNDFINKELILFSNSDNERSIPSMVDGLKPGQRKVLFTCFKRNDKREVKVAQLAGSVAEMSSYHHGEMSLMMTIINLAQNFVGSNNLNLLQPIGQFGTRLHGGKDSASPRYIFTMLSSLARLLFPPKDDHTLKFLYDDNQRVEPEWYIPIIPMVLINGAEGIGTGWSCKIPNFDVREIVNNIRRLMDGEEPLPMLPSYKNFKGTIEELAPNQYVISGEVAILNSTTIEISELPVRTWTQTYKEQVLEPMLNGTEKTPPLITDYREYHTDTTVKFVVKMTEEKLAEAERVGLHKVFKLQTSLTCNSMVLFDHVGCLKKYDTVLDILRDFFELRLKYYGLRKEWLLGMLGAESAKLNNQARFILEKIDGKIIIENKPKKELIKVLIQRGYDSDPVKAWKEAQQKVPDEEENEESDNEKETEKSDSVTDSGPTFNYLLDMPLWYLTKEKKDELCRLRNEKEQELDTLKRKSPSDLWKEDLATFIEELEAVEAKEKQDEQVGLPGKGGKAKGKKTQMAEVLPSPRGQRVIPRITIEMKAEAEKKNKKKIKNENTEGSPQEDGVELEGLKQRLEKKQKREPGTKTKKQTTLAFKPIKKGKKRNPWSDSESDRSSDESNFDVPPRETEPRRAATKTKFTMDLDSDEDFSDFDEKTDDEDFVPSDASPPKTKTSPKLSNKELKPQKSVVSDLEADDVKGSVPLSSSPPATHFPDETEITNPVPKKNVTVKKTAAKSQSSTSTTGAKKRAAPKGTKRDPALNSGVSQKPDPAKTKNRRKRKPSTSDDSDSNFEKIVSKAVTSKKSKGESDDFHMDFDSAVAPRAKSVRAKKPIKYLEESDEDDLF
Readout Kind: inhibition (%)
Supply the numeric figure in %, leaving out any unit text.

Some solved cases for reference:
>>> meas_value("CN1CCN(CCN(C)CCn2nc3c4c(cccc42)C(=O)c2c(Cl)cccc2-3)CC1")
87
>>> meas_value("O=C1c2c(Cl)cccc2-c2nn(CCN3CCN(CCN4CCN(CCn5nc6c7c(cccc75)C(=O)c5c(Cl)cccc5-6)CC4)CC3)c3cccc1c23")
92
>>> meas_value("O=C1c2c(Cl)cccc2-c2nn(CCN3CCN(CCCN4CCN(CCn5nc6c7c(cccc75)C(=O)c5c(Cl)cccc5-6)CC4)CC3)c3cccc1c23")
98
>>> meas_value("O=C1c2c(Cl)cccc2-c2nn(CCN3CCN(C/C=C/CN4CCN(CCn5nc6c7c(cccc75)C(=O)c5c(Cl)cccc5-6)CC4)CC3)c3cccc1c23")
100
>>> meas_value("O=C1c2c(Cl)cccc2-c2nn(CCN3CCN(CCCCCCN4CCN(CCn5nc6c7c(cccc75)C(=O)c5c(Cl)cccc5-6)CC4)CC3)c3cccc1c23")
100
>>> meas_value("O=C1c2c(Cl)cccc2-c2nn(CCN3CCNCC3)c3cccc1c23")
100
>>> meas_value("CN(CCNC(=O)CCCCCC(=O)NCCN(C)CCn1nc2c3c(cccc31)C(=O)c1c(Cl)cccc1-2)CCn1nc2c3c(cccc31)C(=O)c1c(Cl)cccc1-2")
40
>>> meas_value("CN(CCOC(=O)CCCC(=O)OCCN(C)CCn1nc2c3c(cccc31)C(=O)c1c(Cl)cccc1-2)CCn1nc2c3c(cccc31)C(=O)c1c(Cl)cccc1-2")
20

Would you kindly look at the next entry?
Query block: Record lookup: for DNA topoisomerase 2-alpha (Homo sapiens) (UniProt P11388), what inhibition belongs to `CN(CCN1CCN(CCN(C)CCn2nc3c4c(cccc42)C(=O)c2c(Cl)cccc2-3)CC1)CCn1nc2c3c(cccc31)C(=O)c1c(Cl)cccc1-2` ?
Result block: 88
